experimental_system: T1, fusion protein comprising the extracellular region of monkey GDF15 protein and human IgG1-FC (monkey (cyno); human, UniProt G7PWZ3 197-308, limits assumed)
T1 construct: extracellular domain; also called cynoGDF15
T1 sequence (looked up): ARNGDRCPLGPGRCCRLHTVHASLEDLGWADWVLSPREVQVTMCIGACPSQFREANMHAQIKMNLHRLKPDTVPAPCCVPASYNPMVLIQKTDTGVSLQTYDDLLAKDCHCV
procedure_text: ELISA, monkey GDF15-hIgG1 Fc coated, HRP anti-mouse IgG
The following binders are shown together with reported EC50 values.

[
  {
    "binder": "A5 (murine anti-50G3) (antibody, V domains shown, Purified murine hybridoma antibody) VH: QVTLKESGPGILKPSQTLSLTCSFSGFSLSTSGMGVGWIRQPSGKGLEWLAHIWWNDDKYYNPSLKSHLTISKDTSRNQVFLMITSVDTADTATYYCARGAYDFFDYWGQGTTLTVSS VL: DIVMTQAQNFMSTSVGDRVSVTCKASQNVDTNVAWYQQKPGQSPKALIYSASYRYSGVPDRFTGSGSGTDFTLTISNVQSDDLADYFCQQYNTYPYTFGGGTKLEIK",
    "EC50 (µg/mL)": 0.077
  },
  {
    "binder": "A6 (murine anti-53D10) (antibody, V domains shown, Purified murine hybridoma antibody) VH: QVTLKESGPGIVQPSQPFRLTCTFSGFSLSTSGIGITWIRQPSGKGLEWLATIWWDDDNRYNPSLKSRLTVSKDTSNNQAFLNIITVETADTAIYYCVQSAWDWFAYWGQGTLVTVSA VL: DIVMTQSQKFMSTSVGDRVSVTCKASQNVGTNVAWYQQKSGQSPKALIYSASYRNSGVPDRFTGSGSGTDFTLTISNVESEDLAEYFCQQYNSHPVTFGGGTKLEIK",
    "EC50 (µg/mL)": 0.0555
  },
  {
    "binder": "A1 (murine anti-53E5) (antibody, V domains shown, Purified murine hybridoma antibody) VH: QVQLKESGPGILQPSQTLSLTCSFSGFSLSTSGMGVGWIRQPSGKGLEWLAHILWDDVKRYNPALKSRLTISKDSSNSQIFLKIASVDTADTATYYCVQMAWDWFAYWGQGTLVTVSA VL: DIVMTQAQKFMSTSVEDRVSVTCKASQNVDTNVAWYQQKPGQSPKALIYSASYRSSGVPDRFTGSGSGTDFTLTISNVQSEDLAEYFCQQYHSYPTFGGGTKLEIK",
    "EC50 (µg/mL)": 0.0454
  },
  {
    "binder": "A2 (murine anti-53A8) (antibody, V domains shown, Purified murine hybridoma antibody; also called murine antibody 53A8) VH: QVQLKESGPGILQPSQTLSLTCSFSGFSLSTSGMGVGWIRQPSGKGLEWLAHIRWDDVKRYNPALKSRLTISKDTSSSQIFLKIASVDTADTATYYCAQMAWDWFAYWGQGTLVTVSA VL: DIVMTQAQKFMSTSVGDRVSVTCKASQNVDTDVAWYQQKPGQSPKALIYSASYRYSGVPDRFTGSGSGTDFTLTITNVQSEDLAEYFCHQYNSYPTFGGGTKLEIK",
    "EC50 (µg/mL)": 0.0677
  }
]
